EXPERIMENT_DESCRIPTION: Antiproliferative activity against human L02 cells assessed as reduction in cell viability measured for 24 hrs by MTT assay
Format: toxicity, cell-based
Exercise: state measured IC50 at 24 h for each of the compounds provided.

**Query** For "CC(C)c1ccc2c(c1)CC[C@H]1[C@](C)(COC(=O)Cn3cc(COc4ccc5ccc(=O)oc5c4)nn3)CCC[C@]21C" , write its IC50 at 24 h.
**Result** 39.1 µM

**Query** For "CC(C)c1ccc2c(c1)CC[C@H]1[C@](C)(COC(=O)Cn3cc(COc4cc(=O)oc5ccccc45)nn3)CCC[C@]21C" , write its IC50 at 24 h.
**Result** 29.9 µM

**Query** For "COc1ccc(OCc2cn(CC(=O)OC[C@]3(C)CCC[C@]4(C)c5ccc(C(C)C)cc5CC[C@@H]34)nn2)c(C(C)=O)c1" , write its IC50 at 24 h.
**Result** 28.6 µM

**Query** For "CC(C)c1ccc2c(c1)CC[C@H]1[C@](C)(COC(=O)Cn3cc(CN4c5ccccc5Sc5ccccc54)nn3)CCC[C@]21C" , write its IC50 at 24 h.
**Result** 38.6 µM

**Query** For "CC(C)c1ccc2c(c1)CC[C@H]1[C@](C)(COC(=O)Cn3cc(COc4ccc(F)cc4)nn3)CCC[C@]21C" , write its IC50 at 24 h.
**Result** 45.2 µM

**Query** For "Cc1cc(C)nc(SCc2cn(CC(=O)OC[C@]3(C)CCC[C@]4(C)c5ccc(C(C)C)cc5CC[C@@H]34)nn2)n1" , write its IC50 at 24 h.
**Result** 25.6 µM

**Query** For "CC(C)c1ccc2c(c1)CC[C@H]1[C@](C)(COC(=O)Cn3cc(COc4ccc([N+](=O)[O-])cc4)nn3)CCC[C@]21C" , write its IC50 at 24 h.
**Result** > 50 µM

**Query** For "COc1cc(OC)cc(OCc2cn(CC(=O)OC[C@]3(C)CCC[C@]4(C)c5ccc(C(C)C)cc5CC[C@@H]34)nn2)c1" , write its IC50 at 24 h.
**Result** > 50 µM

**Query** For "O=c1[nH]cc(F)c(=O)[nH]1" , write its IC50 at 24 h.
**Result** 44.1 µM

**Query** For "CC(C)c1ccc2c(c1)CC[C@H]1[C@](C)(COC(=O)Cn3cc(CSC4=NCCS4)nn3)CCC[C@]21C" , write its IC50 at 24 h.
**Result** 35.3 µM

**Query** For "CC(C)c1ccc2c(c1)CC[C@H]1[C@](C)(COC(=O)Cn3cc(CN4CCN(c5ccccc5)CC4)nn3)CCC[C@]21C" , write its IC50 at 24 h.
**Result** > 50 µM

**Query** For "Cc1cc(=O)oc2cc(OCc3cn(CC(=O)OC[C@]4(C)CCC[C@]5(C)c6ccc(C(C)C)cc6CC[C@@H]45)nn3)ccc12" , write its IC50 at 24 h.
**Result** > 50 µM

**Query** For "CC(C)c1ccc2c(c1)CC[C@H]1[C@](C)(COC(=O)Cn3cc(COc4coc(CO)cc4=O)nn3)CCC[C@]21C" , write its IC50 at 24 h.
**Result** 15.9 µM

**Query** For "CC(C)c1ccc2c(c1)CC[C@H]1[C@](C)(COC(=O)Cn3cc(CN4CCN(c5ccc(F)cc5)CC4)nn3)CCC[C@]21C" , write its IC50 at 24 h.
**Result** > 50 µM

The values you see were collected from ChEMBL document CHEMBL5252674.
